- Assay: Antioxidant activity assessed as DPPH radical scavenging activity
- Assay type: physicochemical
Recorded metric: IC50
Write the quantity with the unit trailing the number.

Past entries and their recorded results:
>>> recorded_measurement("Cc1c(C)c2c(c(C)c1O)CCC(C)(CCCC(C)CCCC(C)CCCC(C)C)O2 (racemic) [alpha-TOCHOPHEROL]")
"4.6 µg/mL"
>>> recorded_measurement("Oc1cc(O)c2c(c1)O[C@]1(c3ccc(O)c(O)c3)Oc3cc(O)c4c(c3[C@@H]2[C@H]1O[C@@H]1OC[C@@H](O)[C@H](O)[C@H]1O)O[C@H](c1ccc(O)c(O)c1)[C@H](O)[C@H]4c1c(O)cc(O)c2c1O[C@H](c1ccc(O)c(O)c1)[C@H](O)C2")
"2.3 µg/mL"
>>> recorded_measurement("Oc1cc(O)c2c(c1)O[C@H](c1ccc(O)c(O)c1)[C@H](O)[C@H]2c1c(O)cc(O)c2c1O[C@H](c1ccc(O)c(O)c1)[C@H](O)[C@H]2c1c(O)cc(O)c2c1O[C@H](c1ccc(O)c(O)c1)[C@H](O)C2 [PROCYANIDIN C1]")
"6.2 µg/mL"
>>> recorded_measurement("OC[C@H]1O[C@@H](O[C@H]2[C@H]3c4c(O)cc(O)cc4O[C@]2(c2ccc(O)c(O)c2)Oc2cc(O)c4c(c23)O[C@H](c2ccc(O)c(O)c2)[C@H](O)C4)[C@H](O)[C@@H](O)[C@H]1O")
"3.9 µg/mL"

Exam item: Entry `OC[C@H]1O[C@@H](O[C@@H]2[C@@H]3c4c(O)cc(O)cc4O[C@]2(c2ccc(O)c(O)c2)Oc2cc(O)c4c(c23)O[C@H](c2ccc(O)c(O)c2)[C@H](O)[C@H]4c2c(O)cc(O)c3c2O[C@H](c2ccc(O)c(O)c2)[C@H](O)C3)[C@H](O)[C@@H](O)[C@H]1O` : reported IC50 = ?
Marked response: 2.4 µg/mL

Exam item: Entry `Oc1cc(O)c2c(c1)O[C@H](c1ccc(O)c(O)c1)[C@H](O)[C@H]2c1c(O)cc(O)c2c1O[C@H](c1ccc(O)c(O)c1)[C@H](O)[C@H]2c1c(O)cc(O)c2c1O[C@H](c1ccc(O)c(O)c1)[C@H](O)[C@H]2c1c(O)cc(O)c2c1O[C@H](c1ccc(O)c(O)c1)[C@H](O)C2` : reported IC50 = ?
Marked response: 2.1 µg/mL

Exam item: Entry `Oc1cc(O)c2c(c1)O[C@]1(c3ccc(O)c(O)c3)Oc3cc(O)c4c(c3[C@H]2[C@@H]1O[C@@H]1OC[C@@H](O)[C@H](O)[C@H]1O)O[C@H](c1ccc(O)c(O)c1)[C@H](O)C4` : reported IC50 = ?
Marked response: 3.9 µg/mL
